Listed here are binders together with their documented Anti-CD28 Fab signal in the presence of CD28.
target: Anti-CD28 Fab (SEQ ID NOs: 696, 697); assay: phage binding ELISA; captured anti-CD28 Fab pre-incubated with CD28 antigen as competitor, anti-M13 HRP
Sequence (VH, as listed by the source, chain 1 of 2): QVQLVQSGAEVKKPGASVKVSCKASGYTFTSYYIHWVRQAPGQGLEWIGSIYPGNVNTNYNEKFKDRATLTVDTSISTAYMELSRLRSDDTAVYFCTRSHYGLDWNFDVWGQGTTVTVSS
Sequence (VL, as listed by the source, chain 2 of 2): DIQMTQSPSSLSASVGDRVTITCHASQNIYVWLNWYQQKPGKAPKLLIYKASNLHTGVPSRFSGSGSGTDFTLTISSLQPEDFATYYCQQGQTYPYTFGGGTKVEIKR
Answer field: number only, no words.

Check out these entries, answers already filled in.
YCEGHAPMYMWKCL [Phage-586]	0.08
YCDGHSQEYMAKCL [Phage-582]	0.08
YCEGHLPEYMQKCM [Phage-587]	0.08

Now take the following binder into account.
Kindly note the recorded Anti-CD28 Fab signal in the presence of CD28 for YCQGHLPEYMNKCL [Phage-581] , which is 0.08
